Every entry's value here was drawn from the supplement of paper PMC10127200.

- System: A549
- experiment: Euclidean distance of Cell Painting phenotypic profile (signed KS, 77 features) to DMSO centroid (dimensionless distance); 5 or 10 uM (library dependent); higher = stronger phenotypic change vs DMSO (phenoactivity)
- run.parameters: 48 h
Structures can show the parent of a compound that is named as a salt.
Category key, based on recorded Euclidean distance: bucket 1: < 0.7; bucket 2: ≥ 0.7 and < 1; bucket 3: ≥ 1

Below are worked cases with known answers.
compound | class
CC(C)NCC(O)COc1cccc2ccccc12 (stereo unspecified) [Propranolol HCl] | bucket 2
Nc1ccc(-c2ccc3ncc4ccc(=O)n(-c5cccc(C(F)(F)F)c5)c4c3c2)cn1 | bucket 3
CN(C)CCC(c1ccc(Br)cc1)c1ccccn1 (stereo unspecified) [Brompheniramine hydrogen maleate] | bucket 1

Query: Place this compound in its band: `O=C(Nc1cccc(Nc2ncc(Br)c(NCCc3cnc[nH]3)n2)c1)N1CCCC1`
Reply: bucket 3

Query: Next: `C[C@]1(O)C[C@@H](c2nc(-c3ccc4ccc(-c5ccccc5)nc4c3)c3c(N)nccn32)C1`
Reply: bucket 3

Query: Moving on to the next compound: `O=c1[nH]c(=O)n([C@H]2C[C@H](O)[C@@H](CO)O2)cc1I`
Reply: bucket 3

Query: What do we get for `COc1ccc(-c2coc3cc(O)cc(O)c3c2=O)cc1` ?
Reply: bucket 2

Query: Ok, now `CC(C)c1noc(N2CCC(COc3ccc(-c4ccc(S(C)(=O)=O)cc4)nc3)CC2)n1`
Reply: bucket 3

Query: Same thing, different compound: `Cn1cc(/C=C2\C(=O)Nc3cccnc32)c2ccccc21`
Reply: bucket 3

Query: Then `CC(C)OC(=O)CCC/C=C\C[C@@H]1[C@@H](/C=C/C(F)(F)COc2ccccc2)[C@H](O)C[C@@H]1O` ?
Reply: bucket 3

Query: Note, next up: `O=C1Nc2ccccc2/C1=C1/Nc2ccccc2C1=O`
Reply: bucket 3

Query: Lookup CC(=O)NCCCS(=O)(=O)O [Acamprosate Calcium]
Reply: bucket 1

Query: Also, CN1CCC(OC(c2ccccc2)c2ccccc2)CC1 [Diphenylpyraline hydrochloride] please.
Reply: bucket 1

Query: Same lookup for COc1nc(C)cnc1NS(=O)(=O)c1cccnc1-c1ccc(-c2nnco2)cc1 [Zibotentan (ZD4054)] , please.
Reply: bucket 1

Query: Now the compound CC(C(=O)O)c1ccc(C(=O)c2ccccc2)s1 (stereo unspecified)
Reply: bucket 1

Query: Try the compound CN(C)CCC=C1c2ccccc2C=Cc2ccccc21 [Cyclobenzaprine HCl]
Reply: bucket 3

Query: Also `O=C(O)c1cc(=O)c2ccccc2o1` , if possible.
Reply: bucket 1

Query: Can you check `CCN1CCN(C(=O)N[C@@H](C(=O)N[C@@H]2C(=O)N3C(C(=O)O)=C(CSc4nnnn4C)CS[C@H]23)c2ccc(O)cc2)C(=O)C1=O` next?
Reply: bucket 2

---

A collection of compounds and their measured Euclidean distance
- Test system: A549
- experiment: Euclidean distance of Cell Painting phenotypic profile (signed KS, 77 features) to DMSO centroid (dimensionless distance); 5 or 10 uM (library dependent); higher = stronger phenotypic change vs DMSO (phenoactivity)
- run.parameters: 48 h
Where a name gives a salt, the structure may show the parent alone.
Enter a number only.

compound | Euclidean distance
CCOC(=O)N1c2ccc(C(F)(F)F)cc2[C@@H](N(Cc2cc(C(F)(F)F)cc(C(F)(F)F)c2)C(=O)OC)C[C@H]1CC | 0.836
CCC(NC(C)C)C(O)c1ccc(O)c2[nH]c(=O)ccc12 (centres undefined) [Procaterol HCl] | 1.55
CO/N=C1\C[C@]2(C[C@@H]3C[C@@H](C/C=C(\C)C[C@@H](C)/C=C/C=C4\CO[C@@H]5[C@H](O)C(C)=C[C@@H](C(=O)O3)[C@]45O)O2)O[C@H](/C(C)=C/C(C)C)[C@H]1C | 2.11

Okay, next one:
Query: I would be grateful if you could share the reported Euclidean distance for `CC(C)[C@H](C(=O)Nc1ccc(C(=O)NO)cc1)c1ccccc1` .
Reply: 4.55
